- Test target: human GLP-1 receptor (human, UniProt P43220 24-463)
- Method description: cell-based or functional assay
Positions of bridges follow the written chain, without caps; N, C: chain ends. Non-standard residues stand in square brackets, D forms with d. No end group written: not given here. *: point of attachment. Acetyl(2-(4-imidazolyl)) = O=C(Cc1c[nH]cn1)*; Aib = CC(C)(N)C(=O)O
Reported metric: In vitro activity relative to native peptide (%), vs. GLP-1 (cAMP EC50)

{"Binder": "H[Aib]QGTFTSDYSIAMDEIHQKDFVNWLLAQKC (bridge 16-20) [trigonal agonist of SEQ ID NO: 33]", "Unit of measure": "%", "Value modifier": "=", "Value observed": 24.5}
{"Binder": "{Acetyl(2-(4-imidazolyl))}-[Aib]EGTFTSDYSIAMDEIHQKDFVNWLLAQKC (bridge 15-19) [trigonal agonist of SEQ ID NO: 90]", "Unit of measure": "%", "Value modifier": "=", "Value observed": 7.4}
{"Binder": "Y[Aib]QGTFTSDYSKCLDEKAAKEFVQWLLDHHPSSGQPPPS (bridge 16-20) [trigonal agonist of SEQ ID NO: 68]", "Unit of measure": "%", "Value modifier": "=", "Value observed": 27.9}
{"Binder": "Y[Aib]QGTFTSDYSKCLDERAAKEFVQWLLDHHPSSGQPPPS (bridge 16-20) [trigonal agonist of SEQ ID NO: 69]", "Unit of measure": "%", "Value modifier": "=", "Value observed": 24.3}
{"Binder": "Y[Aib]QGTFTSDYSKYLDECRAKEFVQWLLAQKGKKNDWKHNIT (bridge 16-20) [trigonal agonist of SEQ ID NO: 23]", "Unit of measure": "%", "Value modifier": "=", "Value observed": 4.01}
{"Binder": "Y[Aib]QGTFTSDYSKALDEKAAKDFVNWLLDQHPSSGQPPPSC (bridge 16-20) [trigonal agonist of SEQ ID NO: 102]", "Unit of measure": "%", "Value modifier": "=", "Value observed": 23.3}
{"Binder": "H[Aib]QGTFTSDYSKYLDEKACKDFVQWLLDGGPSSGAPPPS (bridge 16-20) [trigonal agonist of SEQ ID NO: 32]", "Unit of measure": "%", "Value modifier": "=", "Value observed": 151}
{"Binder": "H[Aib]QGTFTSDYSKYLDEKRAKEFVQWLLDHHPSSGQPPPSC (bridge 16-20) [trigonal agonist of SEQ ID NO: 50]", "Unit of measure": "%", "Value modifier": "=", "Value observed": 67.4}
{"Binder": "Y[Aib]QGTFTSDYSKYLDEKRAKEFVQWLLDCHPSSGQPPPS (bridge 16-20) [trigonal agonist of SEQ ID NO: 97]", "Unit of measure": "%", "Value modifier": "=", "Value observed": 10.5}
{"Binder": "{Acetyl(2-(4-imidazolyl))}-[Aib]QGTFTSDCSKYLDERAAQDFVQWLLDGGPSSGAPPPS [trigonal agonist of SEQ ID NO: 63]", "Unit of measure": "%", "Value modifier": "=", "Value observed": 15.3}
{"Binder": "{Acetyl(2-(4-imidazolyl))}-[Aib]QGTFTSDYSIAMDEIHQKDFVNWLLNTKC (bridge 15-19) [trigonal agonist of SEQ ID NO: 94]", "Unit of measure": "%", "Value modifier": "=", "Value observed": 0.5}
{"Binder": "{Acetyl(2-(4-imidazolyl))}-[Aib]QGTFTSDYSKYLDEKRQKEFVQWLLDTC (bridge 15-19) [trigonal agonist of SEQ ID NO: 82]", "Unit of measure": "%", "Value modifier": "=", "Value observed": 9.5}
{"Binder": "H[Aib]QGTFTSDYSKCLDEKRAKEFVQWLLDHHPSSGQPPPS (bridge 16-20) [trigonal agonist of SEQ ID NO: 65]", "Unit of measure": "%", "Value modifier": "=", "Value observed": 95.4}
{"Binder": "{Acetyl(2-(4-imidazolyl))}-[Aib]QGTFTSDYSIAMDEIHQKDFVNWLLAQC (bridge 15-19) [trigonal agonist of SEQ ID NO: 85]", "Unit of measure": "%", "Value modifier": "=", "Value observed": 4.3}
{"Binder": "H[Aib]QGTFTSDVSKYLDGQAAQEFVAWLLKGC [trigonal agonist of SEQ ID NO: 8]", "Unit of measure": "%", "Value modifier": "=", "Value observed": 14.2}
{"Binder": "H[Aib]QGTFTSDKSKYLDECAAQDFVQWLLDGGPSSGAPPPS [trigonal agonist of SEQ ID NO: 41]", "Unit of measure": "%", "Value modifier": "=", "Value observed": 34.3}
{"Binder": "{Acetyl(2-(4-imidazolyl))}-GEGTFISDYSIQLDEIAVQDFVEWLLAQKPSSGAPPPSHG [trigonal agonist of SEQ ID NO: 13]", "Unit of measure": "%", "Value modifier": "<", "Value observed": 0.1}
{"Binder": "H[Aib]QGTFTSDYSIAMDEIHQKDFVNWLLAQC (bridge 16-20) [trigonal agonist of SEQ ID NO: 55]", "Unit of measure": "%", "Value modifier": "=", "Value observed": 27.1}
{"Binder": "{Acetyl(2-(4-imidazolyl))}-GQGTFTSDLSIQYDSEHQRDFIEWLKDTGPSSGAPPPSHG [trigonal agonist of SEQ ID NO: 19]", "Unit of measure": "%", "Value modifier": "<", "Value observed": 0.1}
{"Binder": "{Acetyl(2-(4-imidazolyl))}-[Aib]QGTFTSDYSKYLDECRAKEFVQWLLDHHPSSGQPPPS (bridge 15-19) [trigonal agonist of SEQ ID NO: 73]", "Unit of measure": "%", "Value modifier": "=", "Value observed": 22.6}
{"Binder": "HGQGTFTSDCSKQLDGQAAQEFVAWLLAGGPSSGAPPPS [trigonal agonist of SEQ ID NO: 44]", "Unit of measure": "%", "Value modifier": "=", "Value observed": 1.3}
